Measurement target: T1, O-glycosylated LYPD3-STP-ECD (expressed in and purified from NM-F9 cells) (human, UniProt O95274 234-303, O-glycosylated on Ser/Thr by NM-F9 cells: predominantly TF (Galβ1-3GalNAcα1-), lower amounts of Tn)
T1 construct: also called NM-F9-derived LYPD3-STP; STP-rich C-terminal part of the ECD; not shown: fusion partner for purification and detection, e.g. Twin-Strep-tag, MBL or polyhistidine tag; which one and at which end
T1 sequence: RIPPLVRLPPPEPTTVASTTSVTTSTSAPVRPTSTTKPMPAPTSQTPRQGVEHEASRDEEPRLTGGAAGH
Measurement protocol: ELISA and flow cytometry (FIGS. 14, 15 and 16)
Quantity name: binding result

21E9-225 (antibody, V domains shown, Humanized 21E9; also called humanized aLYPD3 antibody 21E9-225) VH: EVQLVESGGGLVQPGGSLRLSCAASGFDFSNYYYMCWVRQAPGKGLEWVSCIAAGSGGYTYYASWAKGRFTISRDNSKNTLYLQMNSLRAEDTAVYYCASSGDYKGFNLWGQGTLVTVS VL: AIRIAQSPSSLSASTGDRVTITCQASQSISSYLAWYQQKPGKAPKLLIYGASNLASGVPSRFSGSGSGTDFTLTISCLQSEDFATYYCQGYYYSFSDIFAFGQGTKVEI :: binds
21E9-222 (antibody, V domains shown, Humanized 21E9; also called humanized aLYPD3 antibody 21E9-222) VH: EVQLVESGGGLVQPGGSLRLSCAASGFDFSNYYYMCWVRQAPGKGLEWVSCIAAGSGGYTYYASWAKGRFTISRDNSKNTLYLQMNSLRAEDTAVYYCASSGDYKGFNLWGQGTLVTVS VL: DIVMTQSPSSLSASVGDRVTITCQASQSISSYLAWYQQKPGKPPKLLIYGASNLASGVPSRFSGSGSGTDFTLTISSLQPEDVATYYCQGYYYSFSDIFAFGGGTKVEI :: binds
